Taken from PubChem BioAssay.

- SYSTEM: Focal adhesion kinase 1 (Homo sapiens)
- ASSAY: small-molecule microarray binders of FAK, primary screen, biochemical, 635/667 nm fluorescence, BSA, DTT (AID 1130);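 also: composite of spot emission at 667 nm and signal to noise over triplicate slides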
- REPORTED CONDITIONS: PTK2 binding, 635 nm fluorescence, higher = more signal

MOLECULE	composite z-score
CC1(C)[C@@H]2CC(C(O)C3C=CC4C(=O)N(Cc5ccccc5)C(=O)C4N3n3cnnc3)=C[C@H]1C2 (stereo not given in full)	0.218
CO[C@H]1O[C@H](CO)[C@@H](OC(=O)Nc2ccc(C(F)(F)F)cc2)[C@H](OC(=O)Nc2ccc3c(c2)OCO3)[C@@H]1OC(=O)Nc1ccc2c(c1)OCO2	1.43
COCCOC(=O)N1C(=O)[C@@]2(c3cc(C#CC4(O)CCCCCC4)ccc31)[C@H](c1ccccc1OCCO)N1[C@H](c3ccccc3)[C@H](c3ccccc3)OC(=O)[C@H]1[C@@H]2C(=O)N1CCN(c2ncccn2)CC1	0.782
C=CCOC(=O)[C@H]1[C@@H]2C(=O)O[C@@H](c3ccccc3)[C@@H](c3ccccc3)N2[C@@H](c2ccc(OCCOC(=O)[C@H]3C[C@H]4C(=O)N[C@@H](CCCCNC(C)=O)C(=O)N4[C@H]3c3ccc(O)cc3)cc2)[C@]12C(=O)Nc1ccc(I)cc12	0.169
C=CCN1C(=O)[C@]2(O[C@H](CCn3cc([C@H](O)c4ccccc4)nn3)[C@@H]([Si](C)(C)c3ccc(OC)cc3)[C@@H]2C)c2ccccc21	-0.458
